system-name: GST-Xa-hAAK1 (Homo sapiens (Human))
Sequence (Q2M2I8 whole entry): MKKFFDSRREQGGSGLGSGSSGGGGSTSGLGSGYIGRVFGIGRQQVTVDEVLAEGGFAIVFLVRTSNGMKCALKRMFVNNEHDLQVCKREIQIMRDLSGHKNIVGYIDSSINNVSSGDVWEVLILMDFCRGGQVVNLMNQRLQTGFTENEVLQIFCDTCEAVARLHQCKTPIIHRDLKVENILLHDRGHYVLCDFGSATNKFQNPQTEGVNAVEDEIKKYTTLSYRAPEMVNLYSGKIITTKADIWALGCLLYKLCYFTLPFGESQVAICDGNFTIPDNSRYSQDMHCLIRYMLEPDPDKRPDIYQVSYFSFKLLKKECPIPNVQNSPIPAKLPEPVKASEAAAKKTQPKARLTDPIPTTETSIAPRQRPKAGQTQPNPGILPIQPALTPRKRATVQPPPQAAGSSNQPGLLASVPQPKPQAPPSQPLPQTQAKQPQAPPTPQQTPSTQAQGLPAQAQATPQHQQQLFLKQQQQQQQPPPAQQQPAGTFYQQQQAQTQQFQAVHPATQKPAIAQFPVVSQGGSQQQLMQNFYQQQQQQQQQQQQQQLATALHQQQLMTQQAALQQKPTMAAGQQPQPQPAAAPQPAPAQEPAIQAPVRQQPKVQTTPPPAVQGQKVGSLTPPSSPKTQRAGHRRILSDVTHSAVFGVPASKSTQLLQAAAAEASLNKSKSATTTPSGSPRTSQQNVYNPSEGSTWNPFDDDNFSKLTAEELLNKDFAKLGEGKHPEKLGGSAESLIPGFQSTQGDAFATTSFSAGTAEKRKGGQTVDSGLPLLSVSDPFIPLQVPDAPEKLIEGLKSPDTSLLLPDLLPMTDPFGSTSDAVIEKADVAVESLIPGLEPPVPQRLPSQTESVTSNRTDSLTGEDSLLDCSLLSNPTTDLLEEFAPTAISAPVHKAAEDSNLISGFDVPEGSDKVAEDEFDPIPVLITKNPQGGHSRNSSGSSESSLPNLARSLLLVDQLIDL
pIC50: −log10 of the molar value.
value-type: pIC50

- molecule: "Cc1nccc2c3cc(Cl)c(OC[C@@](C)(N)CC(C)C)cc3c(=O)n(C(C)C)c12"
  recorded-result: 6.64
- molecule: "Cc1nccc2c3ccc(OC[C@](C)(N)CC(C)C)cc3c(=O)n(C)c12"
  recorded-result: 7.04
- molecule: "Cc1nccc2c3ccc(OC[C@@](C)(N)CC(C)C)c(Cl)c3c(=O)n(C)c12"
  recorded-result: 7.23
- molecule: "Cc1nccc2c3cc(Cl)c(OC[C@@](C)(N)CC(C)C)cc3c(=O)n(C)c12"
  recorded-result: 8.77
- molecule: "CCn1c(=O)c2cc(OC[C@@](C)(N)CC(C)C)c(Cl)cc2c2ccnc(C)c21"
  recorded-result: 7.62
- molecule: "CC(C)C[C@](C)(N)COc1ccc2c(c1)COc1cnc(C(F)F)cc1-2"
  recorded-result: 7.89
- molecule: "Cc1cc2c(cc1OCC(N)CCC(F)(F)F)c(=O)n(C)c1cnccc21 (centres unmarked)"
  recorded-result: 8.43
- molecule: "CC(=O)Nc1cc2c(cn1)OCc1cc(OC[C@](C)(N)CC(C)C)ccc1-2"
  recorded-result: 8.11
- molecule: "Cc1nccc2c1OCc1cc(OC[C@@](C)(N)CC(C)C)ccc1-2"
  recorded-result: 7.96
- molecule: "CCn1c(=O)c2cc(OC[C@@](C)(N)CC(C)C)ccc2c2ccnc(C)c21"
  recorded-result: 5.87
- molecule: "CCOC(=O)Nc1cc2c(cn1)OCc1cc(OC[C@](C)(N)CC(C)C)ccc1-2"
  recorded-result: 8.89
- molecule: "Cc1nccc2c3ccc(OCC(C)(N)CC(C)C)cc3c(=O)n(C)c12 (centres unmarked)"
  recorded-result: 7.31
- molecule: "CC(C)C[C@](C)(N)COc1ccc2c(c1Cl)COc1cnc(N)cc1-2"
  recorded-result: 9.39
- molecule: "CCOC(=O)Nc1ncc2c(c1Cl)-c1ccc(OC[C@@](C)(N)CC(C)C)cc1CO2"
  recorded-result: 7.59
- molecule: "COC(=O)Nc1nc(Cl)c2c(c1Cl)-c1ccc(OC[C@@](C)(N)CC(C)C)c(Cl)c1CO2"
  recorded-result: 7.82
- molecule: "CC(=O)Nc1cc2c(cn1)OCc1cc(OCC(C)(N)CC(C)C)ccc1-2 (centres unmarked)"
  recorded-result: 8.59
- molecule: "COC(=O)Nc1cc2c(cn1)OCc1cc(OC[C@@](C)(N)CC(C)C)c(F)cc1-2"
  recorded-result: 8.27
- molecule: "[2H]C([2H])(Oc1cc2c(=O)n(CC)c3c(C)nccc3c2cc1Cl)C(C)(N)CC(C)C (centres unmarked)"
  recorded-result: 7.52
- molecule: "COC(=O)Nc1cc2c(cn1)OCc1cc(OC[C@@H](N)CC(C)C)ccc1-2"
  recorded-result: 8.42
- molecule: "Cc1cc2c3ccc(OC[C@@](C)(N)CC(C)C)c(Cl)c3c(=O)n(C)c2cn1"
  recorded-result: 8.52

Where do these numbers come from? They come from patent US10174044B2.
